Reference for the values: patent US20260258115A1

Recorded pKd for the following binders
- measurement_target: RSV prefusion F (preF), DS-Cav1 (respiratory syncytial virus, UniProt P03420 26-513)
- assay: BLI, IgG on sensor, 100 nM antigen
Answer as the number alone; pKd is minus log10 of concentration in mol/L.

Sample records with pKd:
[
  {
    "binder": "ADI-41368 (antibody, V domains shown, IgG1; also called Ab 665) VH: EVQLVESGGGVVQPGRSLRLSCAASGFIFRNYGMHWVRQAPGKGLEWVAGTSFEGRNKDYGHSVKGRFTISRDNSKDTLYLQMNSLRPEDTAVYSCAKGSSLQWSHLDWYFDLWGRGTLVTVSS VL: DIVMTQSPSTLSASVGDRVTITCRASQSFSSWLAWYQQKPGKAPNLLIYDASTLESGVPSRFSGSGSGTEFTLTISSLQPDDFATYYCQQERTFGQGTKVEIK",
    "result_type": "pKd",
    "meas_value": 8.51
  },
  {
    "binder": "ADI-41401 (antibody, V domains shown, IgG1) VH: EVQLLESGGGLVHPGRSLRLSCAASGFTFGDYAMHWVRQAPGKGLEWVSGISWNSDTIEYADSVKGRFTISRDNAKNSLYLQMNSLRAEDTALYYCAKDFGSSWEAYFDYWGQGTLVTVSS VL: DIVLTQSPSYLSASVGDRVTITCRASQSISTYLNWYQQKPGKAPKLLISAASSLQSGVTSRFSGSGSGTDFSLTISSLQPEDFATYYCQQSYSTALTFGGGTKVEIK",
    "result_type": "pKd",
    "meas_value": 8.49
  }
]

Recorded pKd for ADI-41414 (antibody, V domains shown, IgG1) VH: EVQLLESGGGLAQPGRSLKVSCAASGVTVTSTYMGWVRQAPGKGLQWVSVIYSDGTTYYADSVKGRFTISRDHYKNTLYLQMNSLRAEDTALYYCARGNRRTDFGYWGQGTLVTVSS VL: EIVMTQSPSTLSASVGDRVTITCRASQTISNWLAWYQQKPGKAPKLLIYQASTLESGVPSRFSGSGSGTEFTLTISSLQPDDFATYYCQQYNTYYTFGPGTKVEIK , please?
8.57
